Recorded values, source patent EP4745134A1.

# Test system: HCT116 MTAP KO cells
# ASSAY NAME: Inhibitory activity against cell proliferation (CellTiter Glo, 6 days), HCT116 MTAP KO
# Format: cell-based
# CONDITION LABEL: ratio of IC50 HCT116-WT / HCT116 MTAP KO
# Method: HCT116-WT (ATCC, CCL-247) and HCT116 MTAP KO (Nanjing Cobioer, CBP75002) cells were seeded into white low-transparency sterile 96-well cell culture plates at a density of 250 cells per well respectively, and the culture medium was McCoy's 5A Medium+10% FBS. The plates were placed under the condition of 37°C and 5% CO2 to be cultured overnight. […] The IC50 values for inhibition of the compounds on cell viability were calculated in X1fit 5.0 software. […]
// returns condition not met unless Selectivity HCT 116-WT/ HCT116 MTAP KO is strictly below 30, in which case condition met

# MOLECULE, MEASURED TARGET, LABEL
records = [
    ("Cc1cc2cc(C(=O)N(Cc3ccc(-c4nnn(C)n4)cn3)N(C)c3ncccn3)ccc2nc1N [Example 231]", "HCT116 MTAP KO cells", "condition met"),
    ("Cc1cc2nc(N)c3cnn(C)c3c2cc1C(=O)N1CC(C)CN1c1cccc(F)n1 (stereo not shown) [Example 360]", "HCT116 MTAP KO cells", "condition not met"),
    ("Cc1cc2nc(N)c3cnn(C)c3c2cc1C(=O)N1CC(C)CN1c1ccc(OC(F)(F)F)cn1 (stereo not shown) [Example 384]", "HCT116 MTAP KO cells", "condition met"),
    ("Cc1cc2nc(N)c3cnn(C)c3c2cc1C(=O)N1C[C@@H](C)CN1c1ncccc1F (single isomer, unassigned) [Example 464]", "HCT116 MTAP KO cells", "condition not met"),
    ("COC1CN(C(=O)c2cc3c(cc2C)nc(N)c2cnn(C)c23)N(c2ncc(Br)cc2F)C1 (stereo not shown) [Example 438]", "HCT116 MTAP KO cells", "condition not met"),
    ("Cc1cc2cc(C(=O)N(Cc3ccc(-c4ccncc4)cn3)N(C)c3ncccc3F)ccc2nc1N [Example 178]", "HCT116 MTAP KO cells", "condition met"),
    ("Cn1ncc2c(N)nc3cc(Cl)c(C(=O)N4CC(F)(F)CN4c4cccc(F)c4F)cc3c21 [Example 461]", "HCT116 MTAP KO cells", "condition met"),
    ("Cc1cc2cc(C(=O)N(Cc3ccc(C(F)(F)F)cn3)N(C)c3ncc(OC(F)F)cn3)ccc2nc1N [Example 57]", "HCT116 MTAP KO cells", "condition met"),
    ("C=C1CN(C(=O)c2cc3c(cc2Cl)nc(N)c2cnn(C)c23)N(c2ncc(F)cc2F)C1 [Example 432]", "HCT116 MTAP KO cells", "condition not met"),
    ("Cc1cc2cc(C(=O)N(Cc3ccc(-c4cc[nH]c4)cn3)N(C)c3ncccn3)ccc2nc1N [Example 191]", "HCT116 MTAP KO cells", "condition met"),
    ("C=Cc1cccnc1N(C)N(Cc1ccc(C(F)(F)F)cn1)C(=O)c1ccc2nc(N)c(C)cc2c1 [Example 133]", "HCT116 MTAP KO cells", "condition met"),
    ("Cc1cc2cc(C(=O)N(Cc3ccc(-c4ccn(C)n4)cn3)N(C)c3ncccn3)ccc2nc1N [Example 168]", "HCT116 MTAP KO cells", "condition met"),
    ("COc1ncc(F)cc1-c1ccc(CN(C(=O)c2ccc3nc(N)c(C)cc3c2)N(C)c2ncccn2)nc1 [Example 161]", "HCT116 MTAP KO cells", "condition met"),
    ("COC1CN(C(=O)c2cc3c(cc2C)nc(N)c2cnn(C)c23)N(c2ccccc2F)C1 (stereo not shown) [Example 436]", "HCT116 MTAP KO cells", "condition met"),
    ("Cn1ncc2c(N)nc3cc(Cl)c(C(=O)N4CC(C(F)(F)F)CN4c4cccc(F)n4)cc3c21 (stereo not shown) [Example 353]", "HCT116 MTAP KO cells", "condition met"),
]

* * *

# MEASURED TARGET: PRMT5-MTA (Homo sapiens, UniProt O14744)
# Sequence (O14744 whole entry): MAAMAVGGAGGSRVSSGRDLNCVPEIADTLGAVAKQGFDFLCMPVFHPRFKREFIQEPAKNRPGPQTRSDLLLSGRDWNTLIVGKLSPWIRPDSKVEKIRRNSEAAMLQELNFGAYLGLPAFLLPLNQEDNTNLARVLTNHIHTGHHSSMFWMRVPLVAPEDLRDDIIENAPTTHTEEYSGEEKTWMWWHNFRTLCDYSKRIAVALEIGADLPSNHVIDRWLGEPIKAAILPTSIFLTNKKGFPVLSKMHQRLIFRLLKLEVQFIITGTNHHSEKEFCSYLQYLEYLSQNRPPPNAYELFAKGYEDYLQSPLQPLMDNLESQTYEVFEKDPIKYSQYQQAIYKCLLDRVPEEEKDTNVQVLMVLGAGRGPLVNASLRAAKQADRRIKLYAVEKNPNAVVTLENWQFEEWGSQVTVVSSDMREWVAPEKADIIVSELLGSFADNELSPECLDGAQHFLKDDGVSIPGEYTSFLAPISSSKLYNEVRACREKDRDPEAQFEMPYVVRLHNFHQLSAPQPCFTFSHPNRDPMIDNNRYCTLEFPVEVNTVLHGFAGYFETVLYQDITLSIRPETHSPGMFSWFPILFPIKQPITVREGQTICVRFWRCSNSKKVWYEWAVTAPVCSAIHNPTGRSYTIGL
# Sequence (Q9BQA1 whole entry partner): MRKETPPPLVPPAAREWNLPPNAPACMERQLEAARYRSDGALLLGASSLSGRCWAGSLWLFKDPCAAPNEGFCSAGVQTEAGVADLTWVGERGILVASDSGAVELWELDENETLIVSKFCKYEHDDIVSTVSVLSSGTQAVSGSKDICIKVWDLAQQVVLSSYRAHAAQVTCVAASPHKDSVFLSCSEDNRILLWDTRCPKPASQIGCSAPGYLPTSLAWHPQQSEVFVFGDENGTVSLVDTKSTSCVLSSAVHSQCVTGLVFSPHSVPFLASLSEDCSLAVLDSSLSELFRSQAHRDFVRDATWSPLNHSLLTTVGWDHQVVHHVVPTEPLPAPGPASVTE
# ASSAY NAME: Enzymatic inhibitory activity against PRMT5-MTA (AlphaScreen)
# Format: biochemical
# CONDITION LABEL: read-out: IC50
Threshold 3 nM. IC50 below it: Satisfied. IC50 at it or above: Not satisfied.

# COMPOUND, LABEL
records = [
    ("Cc1cc2cc(C(=O)N(Cc3cc4cccc(F)c4cn3)N(C)c3ncccn3)ccc2nc1N [Example 123]", "Satisfied"),
    ("CN(c1ncccn1)N(Cc1ccc(C(F)(F)F)cn1)C(=O)c1cc2c(cc1Cl)nc(N)c1cnn(C)c12 [Example 17]", "Not satisfied"),
    ("Cc1cc2cc(C(=O)N(Cc3c(F)cc(Br)cc3F)N(C)c3ncccn3)ccc2nc1N [Example 278]", "Satisfied"),
    ("Cn1ncc2c(N)nc3cc(Cl)c(C(=O)N4CC(F)(F)CN4c4cccc(F)c4F)cc3c21 [Example 461]", "Not satisfied"),
    ("CN(C(=O)c1cc2c(cc1F)nc(N)c1cnn(C)c12)N1CCc2cc(C(F)(F)F)cnc21 [Example 31]", "Not satisfied"),
    ("Cc1cc2nc(N)c3cnn(C)c3c2cc1C(=O)N1CC(C)CN1c1ncc(Br)cc1F (stereo not shown) [Example 392]", "Not satisfied"),
    ("Cc1cc2nc(N)c3cnn(C)c3c2cc1C(=O)N1CC(C(F)(F)F)CN1c1cccc(F)n1 (stereo not shown) [Example 352]", "Not satisfied"),
    ("Cc1cc2nc(N)c3cnn(C)c3c2cc1C(=O)N1CC(C)(C)CN1c1ncccc1F [Example 330]", "Not satisfied"),
    ("Cc1cnc(N(C)N(Cc2ccc(C(F)(F)F)cn2)C(=O)c2ccc3nc(N)c(C)cc3c2)nc1 [Example 276]", "Satisfied"),
    ("Cc1cc2cc(C(=O)N(Cc3ccc(C(F)(F)F)cn3)N(C)c3nccs3)ccc2nc1N [Example 33]", "Not satisfied"),
    ("Cc1cc2cc(C(=O)N(Cc3ccccn3)N(C)c3ncccn3)ccc2nc1N [Example 9]", "Not satisfied"),
    ("Cc1cc2nc(N)c3cnn(C)c3c2cc1C(=O)N1CC(C)CN1c1ncccc1Cl (stereo not shown) [Example 369]", "Not satisfied"),
    ("Cc1cc2cc(C(=O)N(Cc3ccc(C(F)(F)F)cn3)N(C)c3ncc4cc[nH]c4n3)ccc2nc1N [Example 119]", "Satisfied"),
    ("CN(c1ccccc1)N(Cc1ccc(C(F)(F)F)cn1)C(=O)c1ccc2nc(N)c3cnn(C)c3c2c1 [Example 52]", "Not satisfied"),
    ("COc1cc(-c2ccc(CN(C(=O)c3ccc4nc(N)c(C)cc4c3)N(C)c3ncccn3)nc2)cnc1F [Example 199]", "Satisfied"),
    ("Cc1cc2nc(N)c3cnn(C)c3c2cc1C(=O)N(C)N1CCc2ncccc21 [Compound 114]", "Not satisfied"),
    ("Cc1cc2cc(C(=O)N(Cc3ccc(C(F)(F)F)cn3)N(C)c3cc(C(F)(F)F)ccn3)ccc2nc1N [Example 43]", "Not satisfied"),
    ("CCOc1ccc(CN(C(=O)c2ccc3nc(N)c(C)cc3c2)N(C)c2ncccn2)nc1 [Example 264]", "Satisfied"),
    ("[2H]C([2H])([2H])c1cc2cc(C(=O)N(Cc3ccc(C(F)(F)F)cn3)N(C)c3nccc4nccnc34)ccc2nc1N [Example 313]", "Not satisfied"),
    ("Cc1cc2cc(C(=O)N(Cc3ccc(C4(F)CCC4)cn3)N(C)c3ncccn3)ccc2nc1N [Example 287]", "Satisfied"),
    ("Cc1cc2cc(C(=O)N(Cc3ccc(-c4ccc(N(C)C5CC5)nc4)cn3)N(C)c3ncccn3)ccc2nc1N [Compound 247]", "Not satisfied"),
    ("Cc1cc2nc(N)c3cnn(C)c3c2cc1C(=O)N1C[C@H](C)CN1c1ncccc1F (single isomer, unassigned) [Example 465]", "Not satisfied"),
    ("Cc1cc2cc(C(=O)N(Cc3ccc(F)cn3)N(C)c3ncccn3)ccc2nc1N [Example 71]", "Not satisfied"),
    ("Cc1cc(N)nc2ccc(C(=O)N(Cc3ccc(C(F)(F)F)cn3)N(C)c3ncccn3)cc12 [Compound 30]", "Satisfied"),
    ("Cc1cc2cc(C(=O)N(Cc3ccc(C(F)(F)F)cn3)N(C)c3cccnn3)ccc2nc1N [Example 79]", "Not satisfied"),
    ("Cc1cc2cc(C(=O)N(Cc3ccc(-c4ccc(=O)n(C)c4)cn3)N(C)c3ncccn3)ccc2nc1N [Example 155]", "Satisfied"),
    ("Cc1cc2cc(C(=O)N(Cc3cc4ccccc4cn3)N(C)c3ncccn3)ccc2nc1N [Example 104]", "Not satisfied"),
    ("Cc1cc2nc(N)c3cnn(C)c3c2cc1C(=O)N1CCCN1c1ncc(-c2cncs2)cc1F [Example 474]", "Not satisfied"),
    ("Cc1cc2nc(N)c3cnn(C)c3c2cc1C(=O)N1CC(C)CN1c1ncc(C#CCF)cc1F (stereo not shown) [Example 495]", "Not satisfied"),
]
